tested_target: Tyrosine-protein kinase Blk (Homo sapiens);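 note: mean percent inhibition of BLK kinase activity, from GSK PKIS kinase inhibitor set profiling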
condition_summary: at 1 µM
value_type: inhibition (%)
Hi! Could you send only the number? It should be in %, unit omitted.

Reference set (6 entries):
Kindly indicate its recorded inhibition. Item: COc1cc(N2CCN(C(C)C)CC2)ccc1Nc1nc(Nc2cccc(F)c2C(=O)O)c2cc[nH]c2n1
4.31

Kindly indicate its recorded inhibition. Item: O=C1Nc2ccccc2/C1=C1\CCc2cc(O)ccc21
22

Kindly indicate its recorded inhibition. Item: c1cnn2ncc(-c3ccnc(NCCCN4CCOCC4)n3)c2c1
2.58

Kindly indicate its recorded inhibition. Item: COc1cccc(-n2ncc3c(N/N=C/c4ccc(C(=O)NCCN(C)C)cc4)ncnc32)c1
73

Kindly indicate its recorded inhibition. Item: NS(=O)(=O)c1ccc(N/N=C2\C(=O)Nc3ccc(C(=O)NCc4ccncc4)cc32)cc1
13.4

Kindly indicate its recorded inhibition. Item: O=C(O[C@H]1CN[C@H](C#Cc2cc3ncnc(Nc4ccc5c(cnn5Cc5ccccc5)c4)c3s2)C1)N1CCOCC1
6.27

New cases:
Kindly indicate its recorded inhibition. Item: COc1cc(N2CCN(C(C)C)CC2)ccc1Nc1nc(Nc2cccc3ncccc23)c2cc[nH]c2n1
2.64

Data provenance: ChEMBL document CHEMBL1961873
